Measured values drawn from patent US20220081435A1 for this set.

target-or-test-system: AR protein (Homo sapiens, UniProt P10275, T878A)
Construct: The percent AR protein degradation induced by these compounds at various concentrations in LNCaP cells; host or cells: LNCaP
Sequence (P10275 whole entry T878A): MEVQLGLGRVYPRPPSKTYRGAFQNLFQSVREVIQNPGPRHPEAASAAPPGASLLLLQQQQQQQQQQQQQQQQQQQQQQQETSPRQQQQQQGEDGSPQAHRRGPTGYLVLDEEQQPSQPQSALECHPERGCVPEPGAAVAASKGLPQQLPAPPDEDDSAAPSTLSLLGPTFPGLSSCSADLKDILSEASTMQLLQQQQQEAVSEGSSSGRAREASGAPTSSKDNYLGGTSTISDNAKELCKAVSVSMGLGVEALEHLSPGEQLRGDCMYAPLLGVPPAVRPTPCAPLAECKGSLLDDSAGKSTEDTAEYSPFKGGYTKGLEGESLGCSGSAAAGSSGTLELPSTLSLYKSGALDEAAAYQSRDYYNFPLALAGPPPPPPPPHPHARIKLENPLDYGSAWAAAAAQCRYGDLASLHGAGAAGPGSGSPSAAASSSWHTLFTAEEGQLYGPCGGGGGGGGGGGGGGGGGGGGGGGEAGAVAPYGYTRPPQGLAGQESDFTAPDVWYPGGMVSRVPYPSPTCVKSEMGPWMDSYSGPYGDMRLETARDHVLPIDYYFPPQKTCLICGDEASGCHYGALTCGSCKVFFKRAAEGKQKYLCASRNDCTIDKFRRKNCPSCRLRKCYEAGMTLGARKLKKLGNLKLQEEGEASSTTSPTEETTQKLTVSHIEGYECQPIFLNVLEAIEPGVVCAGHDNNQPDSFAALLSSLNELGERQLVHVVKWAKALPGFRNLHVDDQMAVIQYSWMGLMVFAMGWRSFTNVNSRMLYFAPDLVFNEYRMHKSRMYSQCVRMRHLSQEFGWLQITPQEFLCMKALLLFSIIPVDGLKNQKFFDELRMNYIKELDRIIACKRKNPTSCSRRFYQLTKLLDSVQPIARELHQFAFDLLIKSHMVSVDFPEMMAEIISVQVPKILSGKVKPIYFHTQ
assay-comment: AR protein degradation in LNCaP cells (Western blotting)
Type: cell-based
assay-context: LNCaP; 1 μM, treatment time 6 h, average of three independent experiments; read-out: % AR protein degradation in LNCaP Cells
Label scheme for Dmax at 1 µM: lower than 90% is condition not met, 90% and above is condition met.

Cc1ncsc1-c1ccc(CNC(=O)C2C[C@@H](O)CN2C(=O)[C@@H](NC(=O)CCNC(=O)c2ccc(N3C(=S)N(c4ccc(C#N)c(C(F)(F)F)c4)C(=O)C3(C)C)cc2F)C(C)(C)C)cc1 (some centres unmarked)
condition not met
Cc1cc([C@H](C(=O)N2C[C@H](O)C[C@H]2C(=O)N[C@@H](CC(=O)NCCCN2CCN(c3ccc(C#Cc4ccc(N5C(=S)N(c6ccc(C#N)c(C(F)(F)F)c6)C(=O)C5(C)C)cc4)cn3)CC2)c2ccc(-c3scnc3C)cc2)C(C)C)on1
condition met
Cc1ncsc1-c1ccc(CNC(=O)C2C[C@@H](O)CN2C(=O)[C@@H](NC(=O)CCCCCCCCCCNC(=O)c2ccc(N3C(=S)N(c4ccc(C#N)c(C(F)(F)F)c4)C(=O)C3(C)C)cc2F)C(C)(C)C)cc1 (some centres unmarked)
condition not met
Cc1cc([C@H](C(=O)N2C[C@H](O)C[C@H]2C(=O)N[C@@H](CC(=O)N2CCC(N3CCC(C#Cc4ccc(N5C(=S)N(c6ccc(C#N)c(C(F)(F)F)c6)C(=O)C5(C)C)cc4)CC3)CC2)c2ccc(-c3scnc3C)cc2)C(C)C)on1
condition met
Cc1ncsc1-c1ccc([C@H](C)NC(=O)C2C[C@@H](O)CN2C(=O)[C@@H](NC(=O)CCN2CCN(c3ccc(C#Cc4ccc(N5C(=S)N(c6ccc(C#N)c(C(F)(F)F)c6)C(=O)C5(C)C)cc4)cn3)CC2)C(C)(C)C)cc1 (some centres unmarked)
condition not met

Moving on to another molecule below.
Exercise: For this molecule, is measured Dmax at 1 µM 90% or higher? Cc1cc([C@H](C(=O)N2C[C@H](O)C[C@H]2C(=O)N[C@@H](CC(=O)NCCCCCCCCCNC(=O)c2ccc(C(=O)N[C@H]3C(C)(C)[C@H](Oc4ccc(C#N)c(Cl)c4)C3(C)C)cc2)c2ccc(-c3scnc3C)cc2)C(C)C)on1
Solution: condition met
